assay: physchem; conditions: 25 °C, aqueous with cosolvent or surfactant or cyclodextrin, thermodynamic from solid
parameter: solubility at 48 h (µg/mL)
Express your answer in µg/mL, writing the number without its unit.

Q: Consider the compound shown here: `COc1cccc2[nH]c(C(=O)N[C@@H](CC(C)C)C(=O)N[C@@H](C[C@@H]3CCNC3=O)C(=O)CO)cc12` What is its recorded solubility at 48 h?
A: 1900

###

target: UniProtKB P0C6X5
Sequence (P0C6X5 2940-3242): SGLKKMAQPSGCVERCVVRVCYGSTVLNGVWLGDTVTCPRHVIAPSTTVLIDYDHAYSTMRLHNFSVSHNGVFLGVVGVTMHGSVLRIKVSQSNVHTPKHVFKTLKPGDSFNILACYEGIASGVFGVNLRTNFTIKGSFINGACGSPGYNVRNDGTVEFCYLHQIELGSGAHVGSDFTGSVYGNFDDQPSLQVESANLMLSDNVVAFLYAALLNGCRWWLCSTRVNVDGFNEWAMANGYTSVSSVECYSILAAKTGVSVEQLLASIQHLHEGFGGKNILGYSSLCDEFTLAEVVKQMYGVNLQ
parameter: pKi
Keep it numeric: pKi is minus log10 of the concentration in mol/L.

Q: State its pKi on UniProtKB P0C6X5: `COc1cccc2[nH]c(C(=O)N[C@@H](CC(C)C)C(=O)N[C@@H](C[C@@H]3CCNC3=O)C(=O)CO)cc12`
A: 9.10
